Data credit: PubChem BioAssay AID2060338

Test system: 556581-035-R-J1-PDC spheroids with HUVEC/MSC, viability
Experimental protocol: Anticancer human tumor 556581-035-R-J1-PDC patient-derived ovarian carcinoma cell line growth inhibition [IpAb]
Condition details: second compound 0.316 µM; first compound 10 µM; hits give low values
Protocol: Combinatorial screen of targeted agents with ipatasertib and abemaciclib in multi-cell type tumor spheroids […] Compounds. […] If the clinical Cmax for an agent had not been determined, the highest concentration tested was 10 microM. NCI60 Cell Culture. […] The optimal seeding densities for each of the cell lines at each time point assessed were determined prior to performing the concentration response studies. […]
Experimental endpoint: viability, T/C (%)
Please reply with the bare figure in % and do not write the unit itself.

Some solved entries appear below for comparison.
Compound | Value observed
CC1(C)CCC(CN2CCN(c3ccc(C(=O)NS(=O)(=O)c4ccc(NCC5CCOCC5)c([N+](=O)[O-])c4)c(Oc4cnc5[nH]ccc5c4)c3)CC2)=C(c2ccc(Cl)cc2)C1 + CCN1CCN(Cc2ccc(Nc3ncc(F)c(-c4cc(F)c5nc(C)n(C(C)C)c5c4)n3)nc2)CC1 | 11.8
C=CCn1c(=O)c2cnc(Nc3ccc(N4CCN(C)CC4)cc3)nc2n1-c1cccc(C(C)(C)O)n1 + CCN1CCN(Cc2ccc(Nc3ncc(F)c(-c4cc(F)c5nc(C)n(C(C)C)c5c4)n3)nc2)CC1 | 40.7

In plain terms, CC1(C)CCC(CN2CCN(c3ccc(C(=O)NS(=O)(=O)c4ccc(NCC5CCOCC5)c([N+](=O)[O-])c4)c(Oc4cnc5[nH]ccc5c4)c3)CC2)=C(c2ccc(Cl)cc2)C1 + CC(C)NCC(C(=O)N1CCN(c2ncnc3c2C(C)CC3O)CC1)c1ccc(Cl)cc1 has a documented viability, T/C of 24

---

Measured viability, T/C by item
Tested on: 556581-035-R-J1-PDC spheroids with HUVEC/MSC, viability
Experimental protocol: Anticancer human tumor 556581-035-R-J1-PDC cell line growth inhibition [IpAb];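 also: spheroids exposed to compounds for 7 days before readout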
Condition details: second compound 1 µM; first compound 3.16 µM; hits give low values
Please reply with the bare figure in % and do not write the unit itself.

Some solved entries appear below for comparison.
Compound | Target desc | viability, T/C, %
CCCS(=O)(=O)Nc1ccc(F)c(C(=O)c2c[nH]c3ncc(-c4ccc(Cl)cc4)cc23)c1F + CCN1CCN(Cc2ccc(Nc3ncc(F)c(-c4cc(F)c5nc(C)n(C(C)C)c5c4)n3)nc2)CC1 | 556581-035-R-J1-PDC spheroids with HUVEC/MSC, viability | 57.2
CCCS(=O)(=O)Nc1ccc(F)c(C(=O)c2c[nH]c3ncc(-c4ccc(Cl)cc4)cc23)c1F + CC(C)NCC(C(=O)N1CCN(c2ncnc3c2C(C)CC3O)CC1)c1ccc(Cl)cc1 | 556581-035-R-J1-PDC spheroids with HUVEC/MSC, viability | 69.1
C=CC(=O)N1CCN(c2nc(=O)n(-c3c(C)ccnc3C(C)C)c3nc(-c4c(O)cccc4F)c(F)cc23)C(C)C1 (centres undefined) + CCN1CCN(Cc2ccc(Nc3ncc(F)c(-c4cc(F)c5nc(C)n(C(C)C)c5c4)n3)nc2)CC1 | 556581-035-R-J1-PDC spheroids with HUVEC/MSC, viability | 34.2

Now examine the next entry.
In plain terms, Cn1ncc(Cl)c1-c1cc(C(=O)NC(CN)Cc2cccc(F)c2)sc1Cl (centres undefined) + CCN1CCN(Cc2ccc(Nc3ncc(F)c(-c4cc(F)c5nc(C)n(C(C)C)c5c4)n3)nc2)CC1 has a documented viability, T/C of 25.6

---

Measured viability, T/C by item
Tested on: 556581-035-R-J1-PDC spheroids with HUVEC/MSC, viability
Experimental protocol: Anticancer human tumor 556581-035-R-J1-PDC cell line growth inhibition [IpAb];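 also: spheroids exposed to compounds for 7 days before readout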
Condition details: second compound 0.1 µM; first compound 0.1 µM; hits give low values
Please reply with the bare figure in % and do not write the unit itself.

Some solved entries appear below for comparison.
Compound | U | viability, T/C
CCCS(=O)(=O)Nc1ccc(F)c(C(=O)c2c[nH]c3ncc(-c4ccc(Cl)cc4)cc23)c1F + CCN1CCN(Cc2ccc(Nc3ncc(F)c(-c4cc(F)c5nc(C)n(C(C)C)c5c4)n3)nc2)CC1 | % | 113
Cn1nccc1Nc1nccc(-c2ccn(C(CO)c3ccc(Cl)c(F)c3)c(=O)c2)n1 (stereo unspecified) + CCN1CCN(Cc2ccc(Nc3ncc(F)c(-c4cc(F)c5nc(C)n(C(C)C)c5c4)n3)nc2)CC1 | % | 123
C=CC(=O)N1CCN(c2nc(=O)n(-c3c(C)ccnc3C(C)C)c3nc(-c4c(O)cccc4F)c(F)cc23)C(C)C1 (stereo unspecified) + CCN1CCN(Cc2ccc(Nc3ncc(F)c(-c4cc(F)c5nc(C)n(C(C)C)c5c4)n3)nc2)CC1 | % | 109

Query CC(C)n1nc(-c2ccc3oc(N)nc3c2)c2c(N)ncnc21 + CC(C)NCC(C(=O)N1CCN(c2ncnc3c2C(C)CC3O)CC1)c1ccc(Cl)cc1 on 556581-035-R-J1-PDC spheroids with HUVEC/MSC, viability; viability, T/C returned: 24.7

Query Cn1nccc1Nc1nccc(-c2ccn(C(CO)c3ccc(Cl)c(F)c3)c(=O)c2)n1 (stereo unspecified) + CC(C)NCC(C(=O)N1CCN(c2ncnc3c2C(C)CC3O)CC1)c1ccc(Cl)cc1 on 556581-035-R-J1-PDC spheroids with HUVEC/MSC, viability; viability, T/C returned: 75.4

Query CC1(C)CCC(CN2CCN(c3ccc(C(=O)NS(=O)(=O)c4ccc(NCC5CCOCC5)c([N+](=O)[O-])c4)c(Oc4cnc5[nH]ccc5c4)c3)CC2)=C(c2ccc(Cl)cc2)C1 + CC(C)NCC(C(=O)N1CCN(c2ncnc3c2C(C)CC3O)CC1)c1ccc(Cl)cc1 on 556581-035-R-J1-PDC spheroids with HUVEC/MSC, viability; viability, T/C returned: 90.5

Query COc1c(OCCCN2CCOCC2)ccc2c3n(c(=NC(=O)c4cnc(N)nc4)nc12)CCN3 + CCN1CCN(Cc2ccc(Nc3ncc(F)c(-c4cc(F)c5nc(C)n(C(C)C)c5c4)n3)nc2)CC1 on 556581-035-R-J1-PDC spheroids with HUVEC/MSC, viability; viability, T/C returned: 34.4

Query Cn1ncc(Cl)c1-c1cc(C(=O)NC(CN)Cc2cccc(F)c2)sc1Cl (stereo unspecified) + CCN1CCN(Cc2ccc(Nc3ncc(F)c(-c4cc(F)c5nc(C)n(C(C)C)c5c4)n3)nc2)CC1 on 556581-035-R-J1-PDC spheroids with HUVEC/MSC, viability; viability, T/C returned: 82.2

Query Cn1ncnc1[C@H]1c2n[nH]c(=O)c3cc(F)cc(c23)N[C@@H]1c1ccc(F)cc1 + CCN1CCN(Cc2ccc(Nc3ncc(F)c(-c4cc(F)c5nc(C)n(C(C)C)c5c4)n3)nc2)CC1 on 556581-035-R-J1-PDC spheroids with HUVEC/MSC, viability; viability, T/C returned: 55.2

Query C=CCn1c(=O)c2cnc(Nc3ccc(N4CCN(C)CC4)cc3)nc2n1-c1cccc(C(C)(C)O)n1 + CCN1CCN(Cc2ccc(Nc3ncc(F)c(-c4cc(F)c5nc(C)n(C(C)C)c5c4)n3)nc2)CC1 on 556581-035-R-J1-PDC spheroids with HUVEC/MSC, viability; viability, T/C returned: 66.3

Query COc1c(OCCCN2CCOCC2)ccc2c3n(c(=NC(=O)c4cnc(N)nc4)nc12)CCN3 + CC(C)NCC(C(=O)N1CCN(c2ncnc3c2C(C)CC3O)CC1)c1ccc(Cl)cc1 on 556581-035-R-J1-PDC spheroids with HUVEC/MSC, viability; viability, T/C returned: 36.1

---

Test system: 556581-035-R-J1-PDC spheroids with HUVEC/MSC, viability
Experimental protocol: Anticancer human tumor 556581-035-R-J1-PDC cell line growth inhibition [IpAb];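 also: spheroids exposed to compounds for 7 days before readout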
Condition details: second compound 10 µM; first compound 1 µM; hits give low values
Measured viability, T/C by item

Compound | viability, T/C
Cc1nc(NC(=O)N2CCCC2C(N)=O)sc1-c1ccnc(C(C)(C)C(F)(F)F)c1 (stereo not given) + CC(C)NCC(C(=O)N1CCN(c2ncnc3c2C(C)CC3O)CC1)c1ccc(Cl)cc1 | 27.2%
CCCS(=O)(=O)Nc1ccc(F)c(C(=O)c2c[nH]c3ncc(-c4ccc(Cl)cc4)cc23)c1F + CC(C)NCC(C(=O)N1CCN(c2ncnc3c2C(C)CC3O)CC1)c1ccc(Cl)cc1 | 53.2%
C=CC(=O)N1CCN(c2nc(=O)n(-c3c(C)ccnc3C(C)C)c3nc(-c4c(O)cccc4F)c(F)cc23)C(C)C1 (stereo not given) + CC(C)NCC(C(=O)N1CCN(c2ncnc3c2C(C)CC3O)CC1)c1ccc(Cl)cc1 | 48.5%
C=CCn1c(=O)c2cnc(Nc3ccc(N4CCN(C)CC4)cc3)nc2n1-c1cccc(C(C)(C)O)n1 + CC(C)NCC(C(=O)N1CCN(c2ncnc3c2C(C)CC3O)CC1)c1ccc(Cl)cc1 | 11.6%

Now examine the next entry.
In plain terms, Cn1ncc(Cl)c1-c1cc(C(=O)NC(CN)Cc2cccc(F)c2)sc1Cl (stereo not given) + CC(C)NCC(C(=O)N1CCN(c2ncnc3c2C(C)CC3O)CC1)c1ccc(Cl)cc1 has a documented viability, T/C of 53.4%
